Provide the recorded IC50 for the entries that follow.
Test system: RBL-2H3 cells
Test: Inhibition of serotonin liberation from IgE-sensitized, antigen-stimulated RBL-2H3 cells
Format: cell-based
Conditions: Rattus norvegicus, [3H]-serotonin release, IgE-sensitized cells stimulated with specific antigen
Report the figure in µM without appending any unit label.

// query What value of IC50 has been recorded for this entry: COc1ccc(CNCCCN2c3cccnc3[S+]([O-])c3ccc(C)c(C)c32)cc1 (stereo not shown)
// result 2

// query What value of IC50 has been recorded for this entry: COc1ccccc1CNCCCN1c2cccnc2[S+]([O-])c2ccc(C)c(C)c21 (stereo not shown)
// result 5

// query What value of IC50 has been recorded for this entry: Cc1ccc2c(c1C)N(CCCNCc1ccccc1O)c1cccnc1[S+]2[O-] (stereo not shown)
// result 2

// query What value of IC50 has been recorded for this entry: Cc1ccc2c(n1)[S+]([O-])c1ccc(C)c(C)c1N2CCCNCc1ccccc1 (stereo not shown)
// result 2

---

Test system: RBL-2H3 cells
Experiment: Inhibition of serotonin liberation from IgE-sensitized, antigen-stimulated RBL-2H3 cells
Format: cell-based
Details: Rattus norvegicus, [3H]-serotonin release, IgE-sensitized cells stimulated with specific antigen
Provide the recorded IC50 for the entries that follow.
Report the figure in µM without appending any unit label.

// query API: value(readout= IC50, system= RBL-2H3 cells, query= Cc1ccc2c(c1C)N(CCCNCc1ccccc1N(C)C)c1cnccc1[S+]2[O-] (centres unmarked) )
// result 4

// query API: value(readout= IC50, system= RBL-2H3 cells, query= COc1cccc(CNCCCN2c3cccnc3[S+]([O-])c3ccc(C)c(C)c32)c1O (centres unmarked) )
// result 2

// query API: value(readout= IC50, system= RBL-2H3 cells, query= Cc1ccc2c(c1C)N(CCCNCc1ccccc1)c1ccsc1[S+]2[O-] (centres unmarked) )
// result 2

// query API: value(readout= IC50, system= RBL-2H3 cells, query= Cc1ccc2c(c1C)N(CCCNCc1ccccc1)c1c(sc(CO)c1Br)[S+]2[O-] (centres unmarked) )
// result 4

// query API: value(readout= IC50, system= RBL-2H3 cells, query= Cc1ccc2c(c1C)N(CCCNCc1ccccc1)c1c(CO)csc1[S+]2[O-] (centres unmarked) )
// result 5

// query API: value(readout= IC50, system= RBL-2H3 cells, query= Cc1ccc2c(c1C)N(CCCNCc1ccccc1)c1cc(C#N)cnc1[S+]2[O-] (centres unmarked) )
// result 4

// query API: value(readout= IC50, system= RBL-2H3 cells, query= COc1cccc(CNCCCN2c3cccnc3[S+]([O-])c3ccc(C)c(C)c32)c1 (centres unmarked) )
// result 4

// query API: value(readout= IC50, system= RBL-2H3 cells, query= Cc1ccc2c(c1C)N(CCCNCc1ccccc1)c1c(Br)csc1[S+]2[O-] (centres unmarked) )
// result 1

---

Test system: human basophils
Test: Inhibition of mediator (histamine, peptide leukotriene) liberation from human basophils stimulated with mite antigen
Assay type: cell-based
Conditions: peptide leukotriene, leukocyte fraction, enzyme immunoassay, read-out: IC50 (μM) in mediator liberation from human basophils: leukotriene
measured property: IC50 (µM)
Report the figure in µM without appending any unit label.

// query What value of IC50 has been recorded for this entry: COc1cccc(CNCCCN2c3cnccc3[S+]([O-])c3ccc(C)c(C)c32)c1O (stereo not shown) [Example 37]
// result 30

// query What value of IC50 has been recorded for this entry: Cc1ccc2c(c1C)N(CCCNCc1ccccc1)c1c(sc(CO)c1Br)[S+]2[O-] (stereo not shown) [Example 12]
// result 3

// query What value of IC50 has been recorded for this entry: COc1ccsc1CNCCCN1c2c(Br)csc2[S+]([O-])c2ccc(C)c(C)c21 (stereo not shown) [Example 9]
// result 3

// query What value of IC50 has been recorded for this entry: CCOc1ccc2c(n1)[S+]([O-])c1ccc(C)c(C)c1N2CCCNCc1ccccc1 (stereo not shown) [Example 52]
// result 3

// query What value of IC50 has been recorded for this entry: Cc1ccc2c(c1C)N(CCCNCc1cccs1)c1ccsc1[S+]2[O-] (stereo not shown) [Example 4]
// result 10

// query What value of IC50 has been recorded for this entry: CCCOc1ccc2c(n1)[S+]([O-])c1ccc(C)c(C)c1N2CCCNCc1ccccc1 (stereo not shown) [Example 49]
// result 3

// query What value of IC50 has been recorded for this entry: Cc1ccc2c(c1C)N(CCCNCc1ccccc1)c1c(Br)csc1[S+]2[O-] (stereo not shown) [Example 8]
// result 3

// query What value of IC50 has been recorded for this entry: COc1ccc2c(n1)[S+]([O-])c1ccc(C)c(C)c1N2CCCNCc1ccccc1 (stereo not shown) [Example 43]
// result 10

// query What value of IC50 has been recorded for this entry: Cc1ccc2c(c1C)N(CCCNCc1ccccc1)c1ccsc1[S+]2[O-] (stereo not shown) [Example 1]
// result 10

// query What value of IC50 has been recorded for this entry: Cc1ccc2c(c1C)N(CCCNCc1ccc(Cl)cc1Cl)c1cccnc1[S+]2[O-] (stereo not shown) [Example 31]
// result 10

// query What value of IC50 has been recorded for this entry: Cc1ccc2c(c1C)N(CCCNCc1ccccc1)c1c(CO)csc1[S+]2[O-] (stereo not shown) [Example 11]
// result 3

---

System: RBL-2H3 cells
Experiment: Inhibition of serotonin liberation from IgE-sensitized, antigen-stimulated RBL-2H3 cells
Type: cell-based
Settings: Rattus norvegicus, [3H]-serotonin release, IgE-sensitized cells stimulated with specific antigen
measured property: IC50 (µM)
Report the figure in µM without appending any unit label.

// query API: value(readout= IC50, system= RBL-2H3 cells, query= Cc1ccc2c(c1C)N(CCCNCc1ccccc1)c1cccnc1[S+]2[O-] (centres unmarked) )
// result 0.5

// query API: value(readout= IC50, system= RBL-2H3 cells, query= Cc1ccc2c(c1C)N(CCCNCN1CCN(Cc3ccccc3)CC1)c1cnccc1[S+]2[O-] (centres unmarked) )
// result 3

// query API: value(readout= IC50, system= RBL-2H3 cells, query= Cc1ccc2c(c1C)N(CCCNCc1ccccc1)c1cnccc1[S+]2[O-] (centres unmarked) )
// result 4

// query API: value(readout= IC50, system= RBL-2H3 cells, query= Cc1ccc2c(c1C)N(CCCNCc1cccc(F)c1O)c1c(Br)csc1[S+]2[O-] (centres unmarked) )
// result 0.5

// query API: value(readout= IC50, system= RBL-2H3 cells, query= Cc1ccc2c(c1C)N(CCCNCc1cccc(F)c1O)c1cnccc1[S+]2[O-] (centres unmarked) )
// result 3

// query API: value(readout= IC50, system= RBL-2H3 cells, query= COc1cccc(CNCCCN2c3cnccc3[S+]([O-])c3ccc(C)c(C)c32)c1O (centres unmarked) )
// result 3

// query API: value(readout= IC50, system= RBL-2H3 cells, query= Cc1ccc2c(c1C)N(CCCNCc1ccc(Cl)cc1Cl)c1cccnc1[S+]2[O-] (centres unmarked) )
// result 2

// query API: value(readout= IC50, system= RBL-2H3 cells, query= Cc1ccc2c(c1C)N(CCCNC(C)(C)c1ccccc1)c1cccnc1[S+]2[O-] (centres unmarked) )
// result 5

---

Provide the recorded IC50 for the entries that follow.
Tested on: RBL-2H3 cells
Assay: Inhibition of serotonin liberation from IgE-sensitized, antigen-stimulated RBL-2H3 cells
Format: cell-based
Settings: Rattus norvegicus, [3H]-serotonin release, IgE-sensitized cells stimulated with specific antigen
Please state the number and follow it with the unit.

// query API: value(readout= IC50, system= RBL-2H3 cells, query= Cc1ccc2c(c1C)N(CCCNCc1cccs1)c1ccsc1[S+]2[O-] (centres unmarked) )
// result 2 µM

// query API: value(readout= IC50, system= RBL-2H3 cells, query= Cc1ccc2c(c1C)N(CCCN)c1cccnc1[S+]2[O-] (centres unmarked) )
// result 3 µM

// query API: value(readout= IC50, system= RBL-2H3 cells, query= Cc1ccc2c(c1C)N(CCCN)c1ccsc1[S+]2[O-] (centres unmarked) )
// result 8 µM

// query API: value(readout= IC50, system= RBL-2H3 cells, query= Cc1ccc2c(c1C)N(CCCN(C)Cc1ccccc1)c1cccnc1[S+]2[O-] (centres unmarked) )
// result 3 µM

// query API: value(readout= IC50, system= RBL-2H3 cells, query= Cc1ccc2c(c1C)N(CCCNCc1ccccc1)c1cc(Cl)cnc1[S+]2[O-] (centres unmarked) )
// result 2 µM

// query API: value(readout= IC50, system= RBL-2H3 cells, query= COc1ccc2c(n1)[S+]([O-])c1ccc(C)c(C)c1N2CCCNCc1ccccc1 (centres unmarked) )
// result 2 µM

// query API: value(readout= IC50, system= RBL-2H3 cells, query= Cc1ccc2c(c1C)N(CCCNCc1ccccn1)c1cnccc1[S+]2[O-] (centres unmarked) )
// result 4 µM

// query API: value(readout= IC50, system= RBL-2H3 cells, query= COc1c(CNCCCN2c3cccnc3[S+]([O-])c3ccc(C)c(C)c32)ccc(Cl)c1Cl (centres unmarked) )
// result 2 µM

// query API: value(readout= IC50, system= RBL-2H3 cells, query= CCOc1ccc2c(n1)[S+]([O-])c1ccc(C)c(C)c1N2CCCNCc1ccccc1 (centres unmarked) )
// result 3 µM

// query API: value(readout= IC50, system= RBL-2H3 cells, query= COc1ccsc1CNCCCN1c2c(Br)csc2[S+]([O-])c2ccc(C)c(C)c21 (centres unmarked) )
// result 0.5 µM

// query API: value(readout= IC50, system= RBL-2H3 cells, query= Cc1ccc2c(c1C)N(CCCNCc1cccc(C)c1O)c1cccnc1[S+]2[O-] (centres unmarked) )
// result 2 µM
